# ASSAY TEXT: Plasma protein binding, ultrafiltration method
# Assay type: in vitro ADME
# PROTOCOL CONDITIONS: human plasma, % bound, read-out: PPB (%) (converted)
Parameter: fraction unbound at 0.5 h, 5 µM. Scope: all listed entries.
Reply: number alone, nothing else.

# example entries with known answers
>>> observed_result("Cc1cn2cc([N+](=O)[O-])nc2c(=O)n1Cc1ccc(OC(F)(F)F)cc1 [25f]")
0.02
>>> observed_result("O=c1c2nc([N+](=O)[O-])cn2ccn1Cc1ccc(F)cc1 [17e]")
0.18
>>> observed_result("O=c1c2nc([N+](=O)[O-])cn2ccn1Cc1cccc(OC(F)(F)F)c1 [17f]")
0.01

Shifting focus to the compound that follows.
input: Name the recorded fraction unbound at 0.5 h, 5 µM for O=c1c2nc([N+](=O)[O-])cn2ccn1Cc1ccc(OC(F)(F)F)cc1 [17c] .
output: 0.02
